- tgt: A1PI (Homo sapiens)
- Construct: Human plasma is currently the only approved source of therapeutic AlPI
- experimental protocol: A1PI binding on peptide-resin column, injection of 1 mg A1PI in equilibration buffer
- condition set: VIWLVR N-terminal point mutations; 1 mg A1PI, 4° C.
- Description: Confirmatory binding assays were performed in a column chromatographic format on a microbore HPLC using individual peptide sequences synthesized directly onto the Toyopearl 650 M Chelate resin which had been modified with Totda followed by an alanine residue (A-Totda-Toyopearl), at a final substitution density of 0.1 mmole/g resin. The resin was packed into 0.4×5 cm columns (Thomson, Springfield, Va.) and tested on the Michrom HPLC system (Michrom BioResources, Auburn, Calif.). […]
Ends that are not written are not given here.
measure name: % of Total A1PI Eluted by Fraction (Based on Absorbance at 280 nm), Flowthrough (%)

SDWLVR: point mutation of VIWLVR on Ala-Totda-Toyopearl (not fully specified (C-terminus)) = 98
NNWLVR: point mutation of VIWLVR on Ala-Totda-Toyopearl (not fully specified (C-terminus)) = 83

P: NDWLVR: point mutation of VIWLVR on Ala-Totda-Toyopearl (not fully specified (C-terminus))
Q: SNWLVR: point mutation of VIWLVR on Ala-Totda-Toyopearl (not fully specified (C-terminus))
IN: Select the item with the higher value of % of Total A1PI Eluted by Fraction (Based on Absorbance at 280 nm), Flowthrough from the options P and Q listed. Write the label of whichever entry you select.
OUT: P

----------
- tgt: A1PI (Homo sapiens, UniProt P01009)
- Construct: Human plasma is currently the only approved source of therapeutic AlPI
- Sequence (P01009 25-418): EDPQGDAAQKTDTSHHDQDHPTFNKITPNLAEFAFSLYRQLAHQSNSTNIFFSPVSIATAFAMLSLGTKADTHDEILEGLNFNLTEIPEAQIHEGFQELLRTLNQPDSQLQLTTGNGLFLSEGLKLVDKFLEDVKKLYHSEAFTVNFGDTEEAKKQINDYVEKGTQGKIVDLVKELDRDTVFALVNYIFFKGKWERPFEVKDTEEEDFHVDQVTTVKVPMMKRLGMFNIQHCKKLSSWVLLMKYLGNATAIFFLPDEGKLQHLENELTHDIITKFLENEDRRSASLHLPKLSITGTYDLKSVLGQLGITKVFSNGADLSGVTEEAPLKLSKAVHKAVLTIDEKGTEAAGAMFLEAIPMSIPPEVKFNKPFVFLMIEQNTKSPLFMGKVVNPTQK
- experimental protocol: Purification of A1PI from Effluent II+III on peptide column, A1PI mass balance
- Format: binding
- condition set: Table 11; 1 ml Eff. II+III, 4° C.; * Below detection limit
Ends that are not written are not given here.
measure name: Mass A1PI per Eluate Fraction, Flowthrough (mg)

V I V L V R: VIWLVR with Trp at position 3 replaced by Val (VIVLVR) = 0.31
V I A L V R: VIWLVR with Trp at position 3 replaced by Ala (VIALVR) = 0.18
VIWLVR = 0.58
V I S L V R: VIWLVR with Trp at position 3 replaced by Ser (VISLVR) = 0.14
V I N L V R: VIWLVR with Trp at position 3 replaced by Asn (VINLVR) = 0.44

P: V I L L V R: VIWLVR with Trp at position 3 replaced by Leu (VILLVR)
Q: VIFLVR
R: VIYLVR: VIWLVR with Trp at position 3 replaced by Tyr
IN: List by increasing Mass A1PI per Eluate Fraction, Flowthrough. Form entry: labels listed in requested order.
OUT: Q, R, P

----------
- tgt: A1PI (Homo sapiens, UniProt P01009)
- Construct: Human plasma is currently the only approved source of therapeutic AlPI
- experimental protocol: A1PI binding on peptide-resin column, injection of 1 mg A1PI in equilibration buffer
- condition set: sequence order; 1 mg AlPI, 4° C.
- Description: Confirmatory binding assays were performed in a column chromatographic format on a microbore HPLC using individual peptide sequences synthesized directly onto the Toyopearl 650 M Chelate resin which had been modified with Totda followed by an alanine residue (A-Totda-Toyopearl), at a final substitution density of 0.1 mmole/g resin. The resin was packed into 0.4×5 cm columns (Thomson, Springfield, Va.) and tested on the Michrom HPLC system (Michrom BioResources, Auburn, Calif.). […]
Ends that are not written are not given here.
measure name: Percent AlPI Eluted by Fraction, Flowthrough (%)

Would you please look over these solved cases?
RVLFIH: reversed sequence of VIFLVR with C-terminal His = 0
VIFLVR = 0

a: Ac-RVLFIV: N-terminal acetylated Ac-RVLFIV (listed under SEQ ID No:61)
b: RVLFIV: reversed sequence of VIFLVR
IN: Parameter metric = Percent AlPI Eluted by Fraction, Flowthrough. Return the lower-valued option from a and b . Write the label of whichever entry you select.
OUT: b
(b: 8%, a: 76%)

----------
- tgt: A1PI (Homo sapiens)
- Construct: Human plasma is currently the only approved source of therapeutic AlPI
- experimental protocol: Purification of A1PI from Effluent II+III on peptide column, A1PI mass balance
- Type: binding
- condition set: A1PI; 1 ml Eff. II+III, 4° C.
Ends that are not written are not given here.
measure name: Percent Eluted by Fraction, Flow (%)

PYWIVR = 56
YKFRFW = 14
LIVHRW = 59
IIWLYK = 21
VIWLVR = 48

P: RLWRYG
Q: ARWYIH
IN: Select the item with the higher value of Percent Eluted by Fraction, Flow from the options P and Q listed. Write the label of whichever entry you select.
OUT: P

A: RAFWYI
B: RYRIFI
IN: Select the item with the higher value of Percent Eluted by Fraction, Flow from the options A and B listed. Write the label of whichever entry you select.
OUT: B

----------
- tgt: A1PI (Homo sapiens, UniProt P01009)
- Construct: Human plasma is currently the only approved source of therapeutic AlPI
- experimental protocol: Purification of A1PI from Effluent II+III on peptide column, A1PI mass balance
- Format: binding
- condition set: Table 13; A1PI; 1 ml Eff. II+III, 4° C.
Ends that are not written are not given here.
measure name: Percent Eluted by Fraction, Flowthrough (%)

Would you please look over these solved cases?
K I F L V R: point mutation of VIFLVR, position 1 (KIFLVR) = 38
VIFLVR = 25
R I F L V R: point mutation of VIFLVR, position 1 (RIFLVR) = 33

I: A I F L V R: point mutation of VIFLVR, position 1 (AIFLVR)
II: H I F L V R: point mutation of VIFLVR, position 1 (HIFLVR)
III: S I F L V R: point mutation of VIFLVR, position 1 (SIFLVR)
IN: Please rank these substances by Percent Eluted by Fraction, Flowthrough in descending order. Form entry: labels listed in requested order.
OUT: III, I, II

----------
- tgt: A1PI (Homo sapiens)
- Construct: Human plasma is currently the only approved source of therapeutic AlPI
- experimental protocol: A1PI binding on peptide-resin column, injection of 1 mg A1PI in equilibration buffer
- condition set: sequence order; 1 mg AlPI, 4° C.
- Description: Confirmatory binding assays were performed in a column chromatographic format on a microbore HPLC using individual peptide sequences synthesized directly onto the Toyopearl 650 M Chelate resin which had been modified with Totda followed by an alanine residue (A-Totda-Toyopearl), at a final substitution density of 0.1 mmole/g resin. The resin was packed into 0.4×5 cm columns (Thomson, Springfield, Va.) and tested on the Michrom HPLC system (Michrom BioResources, Auburn, Calif.). […]
Ends that are not written are not given here.
measure name: Percent AlPI Eluted by Fraction, 2% Acetic Acid (%)

RVLFIH: reversed sequence of VIFLVR with C-terminal His = 71

I: RVLFIV: reversed sequence of VIFLVR
II: VIFLVR
III: Ac-RVLFIV: N-terminal acetylated Ac-RVLFIV (listed under SEQ ID No:61)
IN: List by increasing Percent AlPI Eluted by Fraction, 2% Acetic Acid. Form entry: labels listed in requested order.
OUT: III, I, II

----------
- tgt: A1PI (Homo sapiens)
- Construct: Human plasma is currently the only approved source of therapeutic AlPI
- experimental protocol: Purification of A1PI from Effluent II+III on peptide column, A1PI mass balance
- Format: binding
- condition set: Table 13; 1 ml Eff. II+III, 4° C.; * Below detection limit
Ends that are not written are not given here.
measure name: Mass A1PI per Eluate Fraction, 2% Acetic Acid (mg)

Would you please look over these solved cases?
K I F L V R: point mutation of VIFLVR, position 1 (KIFLVR) = 0.51
S I F L V R: point mutation of VIFLVR, position 1 (SIFLVR) = 0.52
H I F L V R: point mutation of VIFLVR, position 1 (HIFLVR) = 0.54
A I F L V R: point mutation of VIFLVR, position 1 (AIFLVR) = 0.59

A: R I F L V R: point mutation of VIFLVR, position 1 (RIFLVR)
B: VIFLVR
IN: Select the item with the higher value of Mass A1PI per Eluate Fraction, 2% Acetic Acid from the options A and B listed. Write the label of whichever entry you select.
OUT: B
(B: 0.91 mg, A: 0.50 mg)

----------
- System: Immunoglobulin G (IgG)
- experimental protocol: Purification from Effluent II+III, IgG mass balance
- Type: binding, human
- condition set: 1 ml Eff. II+III, 4° C., * as in Tables 4, 5 (below detection limit)
- Procedure: Sequences 1-11 and 15 were assayed with Effluent II+III (Eff. II+III). Eff. II+III is a process intermediate in the Cohn plasma fractionation process. The feed stream contains 20% (by volume) ethanol, 20-25 mg/ml hSA and approximately 1 mg/ml AlPI. […]
Ends that are not written are not given here.
Mass Protein per Eluate Fraction, 1M NaCl values, listed per item
Reply numerically in mg, unit not repeated.

RAFWYI = 0.02
RFIYYT = 0.02
PYWIVR = 0.03
IIWLYK = 0.02

IN: Please give measured Mass Protein per Eluate Fraction, 1M NaCl of the following entry: VIWLVR
OUT: 0.02

IN: Please give measured Mass Protein per Eluate Fraction, 1M NaCl of the following entry: QYHFWY
OUT: 0.02
